Attribution: ChEMBL document CHEMBL2390953

pIC50, Methionine aminopeptidase 2 (Homo sapiens, UniProt P50579): measured values
pIC50: −log10 of the molar value.

smilesCode: Cc1nc(-c2ccccn2)nc(NCCc2ccccc2)c1C
pIC50: < 4.00

smilesCode: COc1cccc(-c2nc(C)c(Cl)c(NC[C@H](NC(=O)CCCN3CCNCC3)c3ccccc3)n2)n1
pIC50: < 4.52

smilesCode: Cc1nc(-c2ccc(Cl)cn2)nc(NC[C@H](NCCCCc2ccccc2)c2ccccc2)c1Cl
pIC50: < 4.00

smilesCode: Cc1nc(-c2cccnc2)nc(NCc2ccccc2)c1Cl
pIC50: < 4.00

smilesCode: Cc1nc(-c2ccc(Cl)cn2)nc(NC[C@H](NCCCCCc2ccccc2)c2ccccc2)c1Cl
pIC50: < 4.00

smilesCode: Cc1nc(-c2ncccc2Cl)nc(NC[C@H](NC(=O)CCCN2CCNCC2)c2ccccc2)c1Cl
pIC50: < 3.52

smilesCode: Cc1nc(-c2ccc(Cl)cn2)nc(NC[C@H](NCCc2ccccc2)c2ccccc2)c1Cl
pIC50: < 4.00

smilesCode: Cc1nc(-c2ccc(N3CCCC3)cn2)nc(NC[C@H](NC(=O)CCCN2CCNCC2)c2ccccc2)c1Cl
pIC50: 5.96

smilesCode: Cc1nc(-c2ccc(Cl)cn2)nc(NC[C@H](NCCCCc2ccc(O)cc2)c2ccccc2)c1Cl
pIC50: < 3.52
